test: Selectivity ratio of IC50 for human Calu3 cells to IC50 for mouse BAF3 cells expressing TPR-MET; assay type: ADME, cell-based
endpoint name: Ratio IC50

Any idea what Ratio IC50 was measured for Fc1ccc(-c2cnc3nnc(C(F)(F)c4ccc5ncccc5c4)n3n2)cc1 ?
> 10000

---

experiment: Selectivity ratio of IC50 for human SGC7901 cells to IC50 for human EBC1 cells; format: ADME, cell-based; settings: sgc-7901
endpoint name: Ratio IC50

Item under review: Fc1ccc(-c2cnc3nnc(C(F)(F)c4ccc5ncccc5c4)n3n2)cc1 . Reported Ratio IC50?
> 10000

---

Molecular target: Tyrosine-protein kinase receptor TYRO3 (Homo sapiens, UniProt Q06418)
Sequence (Q06418 whole entry): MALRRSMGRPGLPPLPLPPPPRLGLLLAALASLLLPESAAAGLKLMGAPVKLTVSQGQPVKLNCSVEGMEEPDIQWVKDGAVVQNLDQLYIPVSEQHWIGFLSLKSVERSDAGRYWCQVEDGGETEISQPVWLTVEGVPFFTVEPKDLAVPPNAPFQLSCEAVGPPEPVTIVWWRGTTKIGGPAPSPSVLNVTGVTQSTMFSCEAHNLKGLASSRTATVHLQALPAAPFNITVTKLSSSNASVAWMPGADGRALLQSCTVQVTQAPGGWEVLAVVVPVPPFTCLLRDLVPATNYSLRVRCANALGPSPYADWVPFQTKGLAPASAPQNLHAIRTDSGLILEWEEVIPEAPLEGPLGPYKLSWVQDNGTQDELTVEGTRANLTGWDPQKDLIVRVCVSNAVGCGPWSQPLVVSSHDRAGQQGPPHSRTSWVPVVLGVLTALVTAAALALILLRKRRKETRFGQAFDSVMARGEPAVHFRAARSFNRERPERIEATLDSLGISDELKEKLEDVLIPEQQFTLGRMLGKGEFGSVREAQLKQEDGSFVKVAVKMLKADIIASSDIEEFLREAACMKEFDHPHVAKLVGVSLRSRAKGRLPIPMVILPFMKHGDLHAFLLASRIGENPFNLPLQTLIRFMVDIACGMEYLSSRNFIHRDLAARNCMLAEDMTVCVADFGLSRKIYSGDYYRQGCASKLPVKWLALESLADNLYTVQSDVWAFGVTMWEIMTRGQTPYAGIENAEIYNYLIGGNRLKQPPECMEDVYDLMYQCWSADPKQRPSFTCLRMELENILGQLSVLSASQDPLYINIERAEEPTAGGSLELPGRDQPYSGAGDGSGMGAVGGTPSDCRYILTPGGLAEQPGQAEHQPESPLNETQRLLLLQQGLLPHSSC
Test: Inhibition of recombinant TYRO3 (unknown origin) using poly (Glu, Tyr) 4:1 as substrate incubated for 60 mins by ELISA
endpoint name: IC50

Which IC50 is listed for Fc1ccc(-c2cnc3nnc(C(F)(F)c4ccc5ncccc5c4)n3n2)cc1 ?
> 1 µM
